Source: paper PMC516023

B1: HIV-1 Vpr, wild type [HIV-1] / GST-fused di-W peptide WWSFKSV (GST-B4) (parent complex)
chain 1: MEQAPEDQGPQREPHNEWTLELLEELKNEAVRHFPRIWLHGLGQHIYETYGDTWAGVEAIIRILQQLLFIHFRIGCRHSRIGVTRQRRARNGASRS
chain 2: WWSFKSV

# Variants of: B1
# ASSAY_EXPLANATION: GST pull-down, autoradiography scanning; parent: 100; read off a plot
VALUE_KIND: percent of parent

INSERT INTO assay_data (mutation, result) VALUES
  ('chain 1 A30F', '~6%'),
  ('chain 1 I63K', '~80%'),
  ('chain 1 F34I', '~80%'),
  ('chain 1 R62P', '~4%'),
  ('chain 1 R87A, chain 1 R88A', '~71%'),
  ('chain 1 L23F', '~10%'),
  ('chain 1 R80A', '~88%'),
  ('chain 1 E21K', '~7%'),
  ('chain 1 E25K', '~86%');
